For each entry below, report its protein stability index value.
B1: FAM189A2 (parent)
chain: GSEAAVIPLDLGCTQVTQDGDIPN

- Variants of: B1
- Measurement description: protein stability index of a GFP-peptide fusion (GPS, HEK-293T) (PSI 1-6); higher = more stable;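 further: lentivirally expressed fusions sorted by FACS into six bins by GFP to DsRed ratio, PSI derived from sequencing read proportions per bin multiplied by bin number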
- Conditions: c terminus: a fixed tail appended
Give bare numbers.

Some variants with known protein stability index results, for comparison:
• V16L = 5.06
• G20Y = 5.09

--- query ---
Req: Fill in protein stability index for record C13M
Resp: 4.93
